- assay: Single oral dose pharmacokinetic study in dogs, varying the testosterone dose (Example 1)
- Format: in vivo, dogs (female beagles)
- assay_context: female, beagle, dog, serum, dose 50 mg, single oral, time 0.5 h
measured_endpoint: concentration at 0.5 h (ng/mL)
Give bare numbers, in ng/mL.

Sample C[C@]12CC[C@H]3[C@@H](CCC4=CC(=O)CC[C@@]43C)[C@@H]1CC[C@@H]2O — what was its concentration at 0.5 h?
1.54

###

- assay: Single oral dose pharmacokinetic study in dogs, varying the testosterone dose (Example 1)
- Format: in vivo, dogs (female beagles)
- assay_context: female, beagle, dog, serum, dose 250 mg, single oral, time 8 h
measured_endpoint: concentration at 8 h (ng/mL)
One number for each entry, in ng/mL.

Which measured concentration at 8 h value corresponds to C[C@]12CC[C@H]3[C@@H](CCC4=CC(=O)CC[C@@]43C)[C@@H]1CC[C@@H]2O [Testosterone, testosterone] ?
7.57

Where these numbers come from: patent US20040096498A1
